Biological target: Inositol hexakisphosphate kinase 1 (Homo sapiens)
Test: Primary qHTS assay for small molecule inhibitors of Inositol hexaphosphate kinase 1 (IP6K1); also: series mostly up to about 58 µM; % is scaled to controls: 0 for no effect and ±100 for the full control effect
Conditions: ADP-Glo luminescence, 2 h, stronger effect = lower value
Out of some 140,000 compounds screened, about 1,200 (0.86%) were called active. This is one part of a sample in which actives are shown more often than they occur.
activity change values for the compounds below.
PARAMETER MEASURED: activity change (%)

In [3]: df
Out[3]:
                                   compound  observed
0  COc1ccc(CCC(=O)NCCc2csc(-c3ccc(Cl)cc3)n2)cc1     -1.97
1  COc1ccc(OCCCn2c(C3CC(=O)N(c4ccc(F)cc4)C3)nc3ccccc32)cc1 (stereo not given)     -3.06
2  COc1ccc(-c2nc(-c3ccccc3)nc3c2CN(C(=O)c2ccc(C)cc2)CC3)cc1      6.25
3  COc1ccc(CNC(=O)c2noc(-c3ccc(F)cc3)n2)cc1      7.64
4  Cc1ccccc1Cc1c(C)nc2c(C(=O)N3CCc4c(c(-c5nncn5C)nn4C)C3)cnn2c1C       9.9
